Property: IC50; scope: individual molecules
Assay: Cytotoxicity against rat ASK cells assessed as reduction in cell viability by SRB assay
Assay type: functional, cell-based
Numeric only. Scale: µM

Consider the reported IC50 for these molecules:
[
  {
    "Molecule": "CC(=O)OC[C@@]1(C)[C@H]2CC[C@]3(CNc4cccc(F)c4)O[C@H](C4=CCOC4=O)C[C@H]3[C@]2(C)CC[C@H]1OC(C)=O",
    "IC50, µM": 22.3
  },
  {
    "Molecule": "CC(=O)O[C@@H]1CC[C@]2(C)[C@H](CC[C@]3(CNc4cccc(F)c4)O[C@H](C4=CCOC4=O)C[C@H]32)[C@]1(C)CO[Si](C)(C)C(C)(C)C",
    "IC50, µM": 6.1
  },
  {
    "Molecule": "C=C1CC[C@@H]2[C@](C)(CO)[C@H](O)CC[C@@]2(C)[C@@H]1C/C=C1/C(=O)OC[C@H]1O [ANDROGRAPHOLIDE]",
    "IC50, µM": 16.2
  },
  {
    "Molecule": "CC(=O)O[C@@H]1CC[C@]2(C)[C@H](CC[C@]3(CNc4ccccc4)O[C@H](C4=CCOC4=O)C[C@H]32)[C@]1(C)CO[Si](C(C)C)(C(C)C)C(C)C",
    "IC50, µM": 6.1
  }
]

Below: the item to evaluate.
Query: IC50; subject: "CC(=O)O[C@@H]1CC[C@]2(C)[C@H](CC[C@]3(CNc4ccc(Br)cc4)O[C@H](C4=CCOC4=O)C[C@H]32)[C@]1(C)CO[Si](C)(C)C(C)(C)C"
7.35

* * *

Tested on: HT-29
Assay: Cytotoxicity against human HT-29 cells assessed as reduction in cell viability by SRB assay
Format: functional, cell-based
Observed Property: IC50 (µM)
Numeric only. Scale: µM

Consider the reported IC50 for these compounds:
[
  {
    "Compound": "COc1ccc(NC[C@]23CC[C@@H]4[C@](C)(CO[Si](C(C)C)(C(C)C)C(C)C)[C@H](OC(C)=O)CC[C@@]4(C)[C@@H]2C[C@@H](C2=CCOC2=O)O3)cc1OC",
    "IC50 [µM]": 5.24
  },
  {
    "Compound": "Cc1c2ccncc2c(C)c2c1[nH]c1ccccc12 [ELLIPTECINE]",
    "IC50 [µM]": 2.06
  },
  {
    "Compound": "COc1ccc(NC[C@]23CC[C@@H]4[C@](C)(COC(C)=O)[C@H](OC(C)=O)CC[C@@]4(C)[C@@H]2C[C@@H](C2=CCOC2=O)O3)cc1OC",
    "IC50 [µM]": 24.1
  },
  {
    "Compound": "CC(=O)OC[C@@]1(C)[C@H]2CC[C@]3(CNc4ccccc4)O[C@H](C4=CCOC4=O)C[C@H]3[C@]2(C)CC[C@H]1OC(C)=O",
    "IC50 [µM]": 25.7
  }
]

Below: the item to evaluate.
Query: IC50; subject: "CC(=O)O[C@@H]1CC[C@]2(C)[C@H](CC[C@]3(CNc4ccccc4)O[C@H](C4=CCOC4=O)C[C@H]32)[C@]1(C)CO[Si](C(C)C)(C(C)C)C(C)C"
17.5

* * *

Property: pIC50; scope: individual compounds
Tested on: HT-29
Experiment: Cytotoxicity against human HT-29 cells assessed as reduction in cell viability by SRB assay
Format: functional, cell-based
pIC50: −log10 of the molar value.

Consider the reported pIC50 for these compounds:
[
  {
    "Structure As Smiles": "CC(=O)OC[C@@]1(C)[C@H]2CC[C@]3(CNc4ccc(Br)cc4)O[C@H](C4=CCOC4=O)C[C@H]3[C@]2(C)CC[C@H]1OC(C)=O",
    "pIC50": 5.22
  },
  {
    "Structure As Smiles": "CC(=O)O[C@@H]1CC[C@]2(C)[C@H](CC[C@]3(CNc4ccccc4F)O[C@H](C4=CCOC4=O)C[C@H]32)[C@]1(C)CO[Si](c1ccccc1)(c1ccccc1)C(C)(C)C",
    "pIC50": "< 4.30"
  }
]

Below: the item to evaluate.
Query: pIC50; subject: "CC(=O)O[C@@H]1CC[C@]2(C)[C@H](CC[C@]3(CNc4ccccc4F)O[C@H](C4=CCOC4=O)C[C@H]32)[C@]1(C)COC(c1ccccc1)(c1ccccc1)c1ccccc1"
< 4.30

Where do these numbers come from? They come from ChEMBL document CHEMBL4190295.
